Source listed as paper PMC9657007.

Target: EcxR (Ehrlichia chaffeensis)
Sequence: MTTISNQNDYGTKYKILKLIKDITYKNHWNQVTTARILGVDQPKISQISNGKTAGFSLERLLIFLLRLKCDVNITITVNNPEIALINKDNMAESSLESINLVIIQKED
Assay: EMSA
Conditions: EMSA: 10 mM Tris-HCl pH 7.5, 50 mM KCl, 5 mM MgCl2, 2.5% glycerol, 1 mM DTT, 50 ug/mL poly dI-dC, 20 fmol probe, room temperature 25 min (20 min in Fig …)
metric name: binding

>  <primary sequence>
CAGGAGTTACTCCATGTGCAAGTAGTATCTTGTAAACACTAGTGTCTTTAACAACTGCAAGAGCTTGTAATAATCTCTCCACAGTTACATAAGTATCCTGATTCCTTTTTGCTAAACTAATAGCTTCTTCTAAAACCTGAGCCATTTCTTTTGATAAATGTATATGACCACTACCACTTCCACTTACAACAGGTAATTTACTTAAGGAGAGTTTTATATCACTGTATATCTTATCAATATCACATCCACATGAAGTCAGCAACA (double strand) [clpB-ORF]

>  <measured>
no binding

$$$$
>  <primary sequence>
GGATAAGTACTTTAGCAAGTGGTAAAAGCAAGTCTACTCATATTTTTATTAATTAAGTAGTAAAGTTAACTATAGATTTTATTAAAATTTTTATTCTAATCACTTTAAATATCAATTACTTTTGTTGTAAATTTGAAAGAAATTTTATATTCTAGAC (double strand) [p28-Omp14-P5]

>  <measured>
no binding

$$$$

---

Molecular target: EcxR (Ehrlichia chaffeensis)
Sequence: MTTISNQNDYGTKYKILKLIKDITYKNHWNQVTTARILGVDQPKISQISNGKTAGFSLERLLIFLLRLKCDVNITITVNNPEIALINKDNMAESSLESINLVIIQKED
Assay: EMSA
Details: EMSA: 10 mM Tris-HCl pH 7.5, 50 mM KCl, 5 mM MgCl2, 2.5% glycerol, 1 mM DTT, 50 ug/mL poly dI-dC, 20 fmol probe, room temperature 25 min (20 min in Fig …)

>  <primary sequence>
GACTCTAGACTTTTAATTTTATTATTGCCACATGTTAAAAATAATCTAAACTTGTTTTTATTATTGCTGCAGGTAAATAAAAATAGTGGCAAAAGAATGTAGCAATAAGAGGGGGGGGGGGGGGACTAGTTTATAAGTGC (double strand) [p28-Omp19-P1]

>  <system>
EcxR (Ehrlichia chaffeensis)

>  <binding>
no binding

$$$$
>  <primary sequence>
ATATAACCTAATAGTGACAAATAAATTAACAATAGTAGAAGTGTCATATAAAAGCAAGTCAGAATATAAATTTTTGTATAAAATATCGGTAACTTTTGTAAGGAAAATTTAATATATTACGTCAG (double strand) [p28-Omp19-P3]

>  <system>
EcxR (Ehrlichia chaffeensis)

>  <binding>
binds

$$$$
>  <primary sequence>
GTACCTAAATCTATACCTATAACAGCCATAAATAGCCCCCTTACATAAAAATCAAAACTATAATCACAGATATAATAACCAAATCATAAGATTACAACCCCATTTAACACAAGTTCATAAATTTATGAA (double strand) [dnaK promoter EMSA probe]

>  <system>
EcxR (Ehrlichia chaffeensis)

>  <binding>
binds

$$$$
>  <primary sequence>
GATTAATAGATTCTAGGGAACTCTCTGCCATATTGTCTTTGTTAATTAATGCAATTTCTGGGTTATTGACAGTGATTGTTATATTCACATCACATTTTAGACGTAACAAAAATATAAGTAAACGTTCTAATGAAAATCCTGCTGTTTTACCATTACTAATCTGAGATATTTTTGGTTGGTCTACGCCCAGTATCCTTGCTGTGGTTACTTGGTTCCAGTGATTCTTA (double strand) [ecxR-ORF]

>  <system>
EcxR (Ehrlichia chaffeensis)

>  <binding>
no binding

$$$$
>  <primary sequence>
TAACTTACTTAAAAAATTAACTACTTAAATATCAACGATGTTTTCAGTATCAAGTCAATTGATTTTTTATGTGTTATGTAAACTGTTACAGAGTAATATAATATTTCTACTGGGTCCTATAAAGTTCTAACCTTGTAAACATTTGTGCAATATGTATTATAAAATTTATTGATTGATACTTGAAATTAGATTTCTTGATATTATATATGATCTTAGCTAGTAGTATCTGATGCTACTGATAATTTATTTTTTTATAGAGGTAG (double strand) [groES/L promoter EMSA probe]

>  <system>
EcxR (Ehrlichia chaffeensis)

>  <binding>
binds

$$$$
>  <primary sequence>
GTTCCGTATTTATTAATATATGTTATAATGTAATTAAATAAGGATACTAGATTTGCTCATAATGCATGTACTGAATTTGTGATTTGAAATAACAAGACTTAAATGTCGAATTTAGCTTCTGTCCTAGTGGATAAGTACTTTAGCAAGTGGTAAAAGCAAGTCTACTCATATTTTTATTAATTAAGTAGTAAAGTTAACTATAG (double strand) [p28-Omp14-P4]

>  <system>
EcxR (Ehrlichia chaffeensis)

>  <binding>
binds

$$$$
>  <primary sequence>
GTTTTCTGCTTTATTAGAATGATTCCCAAATAAATTTTAATTAATTACTGTTCCGTATTTATTAATATATGTTATAATGTAATTAAATAAGGATACTAGATTTGCTCATAATGCATGTAC (double strand) [p28-Omp14-P3]

>  <system>
EcxR (Ehrlichia chaffeensis)

>  <binding>
binds

$$$$
>  <primary sequence>
CTTTTGTAAGGAAAATTTAATATATTACGTCAGGTAAGTAATAGCAAAAAAACTGGTTAAGTATAGTATCATGTGTAAAGGTGAGAAAAACAGCAC (double strand) [p28-Omp19-P2]

>  <system>
EcxR (Ehrlichia chaffeensis)

>  <binding>
binds

$$$$

---

Biological target: EcxR (Ehrlichia chaffeensis) (UniProt Q2GG40)
Sequence: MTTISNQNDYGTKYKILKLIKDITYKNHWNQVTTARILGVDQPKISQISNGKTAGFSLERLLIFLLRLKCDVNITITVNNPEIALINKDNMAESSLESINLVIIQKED
Assay: Southwestern blot
Conditions: EMSA: 10 mM Tris-HCl pH 7.5, 50 mM KCl, 5 mM MgCl2, 2.5% glycerol, 1 mM DTT, 50 ug/mL poly dI-dC, 20 fmol probe, room temperature 25 min (20 min in Fig …)

>  <primary sequence>
GTACCTAAATCTATACCTATAACAGCCATAAATAGCCCCCTTACATAAAAATCAAAACTATAATCACAGATATAATAACCAAATCATAAGATTACAACCCCATTTAACACAAGTTCATAAATTTATGGCATGCGCTG (double strand) [dnaK promoter (SWB probe)]

>  <binding>
binds

$$$$

---

Target: EcxR (Ehrlichia chaffeensis) (UniProt Q2GG40)
Sequence: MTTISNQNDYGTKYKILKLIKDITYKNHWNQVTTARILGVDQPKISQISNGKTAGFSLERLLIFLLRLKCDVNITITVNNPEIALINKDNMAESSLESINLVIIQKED
Test: Southwestern blot
Details: EMSA: 10 mM Tris-HCl pH 7.5, 50 mM KCl, 5 mM MgCl2, 2.5% glycerol, 1 mM DTT, 50 ug/mL poly dI-dC, 20 fmol probe, room temperature 25 min (20 min in Fig …)
metric name: binding

>  <primary sequence>
TACCCGGACAAACTGACTTTCATGTTTAATATAAATTATTGATCCAATCAAGCTAAAAAGTAAATAAATTTTATCTTATATTTCATAAAGCATAATATGTTATTTCTGTATATTATATAATTAGTATACTATTCCAGCAAACTAGATAGAATATATCCATTAAATAACTATTGCATTCACTTTATGCATGATTTATCTTACATAGGTTGCTTTGT (double strand) [tr1 promoter (SWB probe)]

>  <measured>
binds

$$$$
>  <primary sequence>
GGTGTTTTTATAATTTTATTACTAAGATATTTTTTTATTAATAACTATATGCCAATACAGATAGTATAAGTATCTTATAATAAATCCATCATCTTAATGTAAGTAATACATATAACTAATAACAATAATATATTAACATTTTTATAGAATATCTATCATAATCAAACATTAACTAAATTCTCTACTAGCAGTAAATTGAATATCTACAATTTACACGTTCTACTGTTTTGCTTGCCAACTTAATTGATACTGCTTATCATCTGAATATCAAAAGATGATAGGGTACTGT (double strand) [clpB promoter (SWB probe)]

>  <measured>
binds

$$$$
>  <primary sequence>
CTACCTCTATAAAAAAATAAATTATCAGTAGCATCAGATACTACTAGCTAAGATCATATATAATATCAAGAAATCTAATTTCAAGTATCAATCAATAAATTTTATAATACATATTGCACAAATGTTTACAAGGTTAGAACTTTATAGGACCCAGTAGAAATATTATATTACTCTGTAACAGTTTACATAACACATAAAAAATCAATTGACTTGATACTGAAAACATCGTTGATATTTAAGTAGTTAATTTTTTAAGTAAGTTAGCATGCGCTG (double strand) [groES/L promoter (SWB probe)]

>  <measured>
binds

$$$$
